System: Inhibin beta A chain (activin A)
Assay: INHBA (activin A) binders on microarrays, primary screen, biochemical, small-molecule microarray, 635 nm fluorescence scan (AID 1107);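 also: mouse activin A protein probed at 4.33 µg/mL on printed slides; score merges bound-protein fluorescence near 667 nm with spot signal-to-noise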
Details: small-molecule microarray binding, higher = more signal
The label depends only on composite z-score: satisfied if it is at least 0.5, not satisfied if it is smaller.

- COc1ccc(C#Cc2ccc3c(c2)[C@]2(C(=O)N3)[C@H](C(=O)NC[C@H](O)c3ccccc3)[C@H]3C(=O)O[C@H](c4ccccc4)[C@H](c4ccccc4)N3[C@@H]2c2ccc(OCCO)cc2)cc1: not satisfied
- CN(C)CCCNC(=O)[C@@]1(Cc2ccccc2I)c2ccccc2C(=O)N(Cc2ccccc2C(F)(F)F)[C@H]1c1ccc(CO)cc1: not satisfied
- O=C1C2C=CC(C(O)c3ccc(B(O)O)cc3)N(Nc3ccccc3)C2C(=O)N1c1ccccc1 (stereo unspecified): satisfied
- [N-]=[N+]=NCc1ccccc1C[C@]1(C(=O)O)N=C(c2ccc(OCCCO)cc2)O[C@H]1c1ccccc1CN=[N+]=[N-]: not satisfied
- N[C@@H](Cc1ccccc1)Cn1cc(-c2ccccc2)nn1: not satisfied

From here, focus on the item given below.
In: Can CC(C)N1C(=O)c2ccccc2[C@@H](C(=O)NCCCN(C)C)[C@@H]1c1ccc(CO)cc1 be said to have composite z-score at or above 0.5?
Out: satisfied

Just for reference, PubChem BioAssay is where these values come from.
